# experimentalSystem: human orexin-2 receptor (Homo sapiens (Human), UniProt O43614)
# Sequence (O43614 whole entry): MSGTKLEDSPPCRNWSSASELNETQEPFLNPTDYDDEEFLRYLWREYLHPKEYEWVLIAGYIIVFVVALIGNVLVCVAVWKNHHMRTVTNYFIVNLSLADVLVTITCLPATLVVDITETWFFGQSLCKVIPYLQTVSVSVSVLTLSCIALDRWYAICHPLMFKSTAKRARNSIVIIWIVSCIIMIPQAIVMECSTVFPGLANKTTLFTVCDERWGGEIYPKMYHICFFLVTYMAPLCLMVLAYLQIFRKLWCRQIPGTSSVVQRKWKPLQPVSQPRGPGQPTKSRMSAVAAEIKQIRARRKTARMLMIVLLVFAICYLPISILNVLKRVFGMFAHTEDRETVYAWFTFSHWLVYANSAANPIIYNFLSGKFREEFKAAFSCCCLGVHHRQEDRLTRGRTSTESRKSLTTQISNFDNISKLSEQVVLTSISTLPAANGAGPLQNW
# protocolNotes: Intracellular calcium measurement (FLIPR), CHO cells expressing human orexin-2 receptor, 3 nM orexin-A
# Type: cell-based
# runParameters: CHO cells expressing human orexin-2 receptor, FLIPR, 3 nM orexin-A; geometric mean if determined several times; read-out: IC50 OX2
Consider the following molecules; for each one, report its pIC50.
Numbers only, as −log10 of the molar value.

Cc1ccc(-n2nccn2)c(C(=O)N2CCC[C@H]2c2nc(-c3cnccc3C)no2)c1 ... 6.27
COc1cc(C)cc(-c2nc([C@@H]3CCCN3C(=O)c3cc(C)ccc3-n3nccn3)no2)c1 ... 7.92
COc1ccc(C)cc1-c1nc([C@@H]2CCCN2C(=O)c2cc(C)c(C)cc2-n2nccn2)no1 ... 8.70
COc1c(F)cccc1-c1cc([C@@H]2CCCN2C(=O)c2cc(C)ccc2-n2nccn2)on1 ... 7.59
COc1cc(C(=O)N2CCC[C@H]2c2nc(-c3cccc(F)c3OC)no2)c(-n2nccn2)cc1OC ... 7.70

Consider the following items and state reported pIC50 for each.
1. COc1cccc(-c2nnc([C@@H]3CCCN3C(=O)c3cc(C)ccc3-n3nccn3)[nH]2)c1
2. CCOc1ccccc1-c1noc([C@@H]2CCCN2C(=O)c2ccc(C)cc2-n2nccn2)n1
3. COc1c(F)cccc1-c1nnc([C@@H]2CCCN2C(=O)c2cc(Cl)c(C)cc2-n2nccn2)[nH]1
4. COc1cc(C(=O)N2CCC[C@H]2c2noc(-c3cc(C)ccc3C)n2)c(-n2nccn2)cc1Cl
5. Cc1ccc(-n2nccn2)c(C(=O)N2CCC[C@H]2c2nc(-c3cccc4c3OCO4)no2)c1

1. 6.74
2. 7.70
3. 8.70
4. 8.70
5. 7.60

Consider the following items and state reported pIC50 for each.
1. Cc1ccc(-n2nccn2)c(C(=O)N2CCC[C@H]2c2cc(-c3cccc(Cl)c3C)on2)c1
2. COc1cc(C(=O)N2CCC[C@H]2c2noc(-c3cccc(Cl)c3OC)n2)c(-n2nccn2)cc1C
3. Cc1cccc(C(=O)N2CCC[C@H]2c2nc(-c3cccc(F)c3C)no2)c1-n1nccn1
4. COc1cc(C(=O)N2CCC[C@H]2c2noc(-c3cccc(F)c3C)n2)c(-n2nccn2)cc1F
5. CCOc1c(F)cccc1-c1noc([C@@H]2CCCN2C(=O)c2cc(Cl)c(C)cc2-n2nccn2)n1

1. 8.70
2. 9.00
3. 7.05
4. 7.54
5. 8.00
